# credit: patent US9266883B2

biological target: FGFR4 (GST-FGFR4(388-802)) (Homo sapiens (Human), UniProt P22455); test: In-vitro biochemical kinase assay for FGFR4 (Caliper microfluidic mobility shift); conditions: read-out: Biochemical FGFR4 IC50
Sequence (P22455 388-802): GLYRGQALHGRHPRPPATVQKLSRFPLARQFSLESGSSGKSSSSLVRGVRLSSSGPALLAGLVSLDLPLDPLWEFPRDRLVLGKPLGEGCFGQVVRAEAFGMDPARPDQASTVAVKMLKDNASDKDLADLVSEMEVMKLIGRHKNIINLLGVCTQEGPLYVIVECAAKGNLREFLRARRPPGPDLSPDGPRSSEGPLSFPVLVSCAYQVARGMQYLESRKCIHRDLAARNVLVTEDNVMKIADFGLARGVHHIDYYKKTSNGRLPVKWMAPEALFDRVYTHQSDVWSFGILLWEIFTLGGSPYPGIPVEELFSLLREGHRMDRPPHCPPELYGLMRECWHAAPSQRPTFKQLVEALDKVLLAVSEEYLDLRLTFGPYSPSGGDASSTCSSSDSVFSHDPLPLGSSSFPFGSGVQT
Reported log10 of IC50 values for a set of compounds
The common logarithm of IC50 in nM is what is listed.

Determine its reported log10 of IC50: O=Cc1nc2c(cc1CO)CCCN2C(=O)Nc1ncc(Cl)c(O[C@H]2CCOC2)n1 [Example 69]
1.73

###

biological target: FGFR4 (GST-FGFR4(388-802)) (Homo sapiens (Human)); test: In-vitro biochemical kinase assay for FGFR4 (Caliper microfluidic mobility shift); settings: biochemical FGFR4 assay; read-out: Biochemical IC50
IC50 overview
Give just the number in nM; leave the unit off.

Known results for compounds:
>>> observed("COCCNc1cc(NC(=O)N2CCCc3cc(CN4C(=O)CN(C)CC4(C)C)c(C=O)nc32)ncc1C#N")
1.4
>>> observed("CCNc1cc(NC(=O)N2CCCc3cc(CN(CC)C(=O)CN(C)C)c(C=O)nc32)ncc1C#N")
0.2
>>> observed("CCOc1cc(NC(=O)N2CCCc3cc(CN4CCN(C)CC4=O)c(C=O)nc32)ncc1C#N")
1.3

Quick one: give measured IC50 for CC(C)Oc1cc(NC(=O)N2CCCc3cc(CO)c(C=O)nc32)ncc1C#N
2.8

###

target: Tel-FGFR4 (Homo sapiens (Human), UniProt P22455); assay: In vitro cellular kinase assay for FGFR4 (BaF3-Tel-FGFR4 cells, MSD capture ELISA of tyrosine phosphorylation); format: cell-based; conditions: Cellular BaF3 FGFR4 assay; read-out: Cellular IC50
Sequence (P22455 other isoform, or with tags, fused parts or gaps): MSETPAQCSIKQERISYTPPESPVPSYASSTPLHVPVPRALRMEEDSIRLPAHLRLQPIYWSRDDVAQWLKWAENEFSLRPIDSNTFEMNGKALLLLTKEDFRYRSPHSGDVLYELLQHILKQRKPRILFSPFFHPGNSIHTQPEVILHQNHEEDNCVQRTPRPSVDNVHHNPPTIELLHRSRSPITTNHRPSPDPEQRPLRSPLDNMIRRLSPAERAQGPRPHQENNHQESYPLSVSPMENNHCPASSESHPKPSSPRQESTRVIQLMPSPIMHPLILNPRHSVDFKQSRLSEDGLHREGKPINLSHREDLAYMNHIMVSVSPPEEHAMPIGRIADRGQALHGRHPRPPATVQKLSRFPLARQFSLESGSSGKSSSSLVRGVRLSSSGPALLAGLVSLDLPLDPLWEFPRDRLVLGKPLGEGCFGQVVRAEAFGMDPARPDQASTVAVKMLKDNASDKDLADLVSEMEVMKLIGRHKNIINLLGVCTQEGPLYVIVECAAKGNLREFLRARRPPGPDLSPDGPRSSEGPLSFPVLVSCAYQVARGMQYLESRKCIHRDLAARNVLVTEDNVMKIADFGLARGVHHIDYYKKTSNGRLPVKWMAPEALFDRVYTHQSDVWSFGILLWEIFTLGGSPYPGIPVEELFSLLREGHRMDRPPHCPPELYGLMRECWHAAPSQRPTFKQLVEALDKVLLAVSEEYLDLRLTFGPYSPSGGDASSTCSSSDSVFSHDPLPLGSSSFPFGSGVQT
pIC50: −log10 of the molar value.
Binary call on pIC50: YES from 8 upward, NO beneath that.

Determine whether measured pIC50 meets or exceeds 8 for COc1cc(NC(=O)N2CCCc3cc(CN4CCCC4(C)C)c(C=O)nc32)ncc1C#N
NO

Answer whether pIC50 of COC[C@@H](C)Oc1cc(NC(=O)N2CCCc3cc(CN(C)C(C)=O)c(C=O)nc32)ncc1C#N is greater than or equal to 8.
YES

hey, is pIC50 for this one >= 8? CNc1cc(NC(=O)N2CCCc3cc(CN4CCN(C)CC4=O)c(C=O)nc32)ncc1C#N
YES

Hi, just wondering whether N#Cc1cnc(NC(=O)N2CCCc3cc(C(F)F)c(C=O)nc32)cc1NCCO shows pIC50 of 8 or higher.
YES

###

target: FGFR4 (GST-FGFR4(388-802)) (Homo sapiens (Human)); test: In-vitro biochemical kinase assay for FGFR4 (Caliper microfluidic mobility shift); conditions: biochemical FGFR4 assay; read-out: Biochemical IC50
Listed here: items and their measured pIC50.
// pIC50 here means minus log10 of the molar concentration (mol/L)

Reference set, count: 3
>>> observed("CC(C)Oc1cc(NC(=O)N2CCCc3cc(CN4CCN(C)C(=O)C4)c(C=O)nc32)ncc1C#N")
8.77
>>> observed("COCCNc1cc(NC(=O)N2CCC(O)c3cc(CN4CCN(C)CC4=O)c(C=O)nc32)ncc1C#N (centres unmarked)")
8.74
>>> observed("COCCNc1cc(NC(=O)N2CCCc3cc(CN4C[C@@H](N(C)C)CC4=O)c(C=O)nc32)ncc1C#N")
9.22

Give the measured pIC50 for CCc1cc(NC(=O)N2CCCc3cc(CO)c(C=O)nc32)ncc1C#N
6.02

# return recorded pIC50 for entry COCCNc1cc(NC(=O)N2CCCc3cc(-c4sc(C)nc4C)c(C=O)nc32)ncc1C#N
8.02

###

target: FGFR4 (GST-FGFR4(388-802)) (Homo sapiens (Human), UniProt P22455); test: In-vitro biochemical kinase assay for FGFR4 (Caliper microfluidic mobility shift); details: biochemical FGFR4 assay; read-out: Biochemical IC50
# strict inequality: IC50 < 1 nM yields TRUE, everything else yields FALSE

Worked cases, answers included:
>>> label("COCCNc1cc(NC(=O)N2CCCc3cc(CN4C[C@H](N(C)C)CC4=O)c(C=O)nc32)ncc1C#N")
"TRUE"
>>> label("CC(C)Oc1cc(NC(=O)N2CCCc3cc(C(F)F)c(C=O)nc32)ncc1C#N")
"FALSE"
>>> label("CC(C)Oc1cc(NC(=O)N2CCCc3cc(CN4CCOC4=O)c(C=O)nc32)ncc1C#N")
"FALSE"

Attention now turns to another entry.
Consider the compound COC[C@H](C)Nc1cc(NC(=O)N2CCCc3cc(CN4CCOCC4=O)c(C=O)nc32)ncc1C#N . Is its IC50 strictly less than 1 nM?
FALSE

###

The reader will find reported pIC50 values listed item by item below.
target: FGFR4 (GST-FGFR4(388-802)) (Homo sapiens (Human), UniProt P22455); test: In-vitro biochemical kinase assay for FGFR4 (Caliper microfluidic mobility shift); settings: biochemical FGFR4 assay; read-out: Biochemical IC50
Recall that pIC50 is obtained by taking minus log10 of the concentration measured in molar.

Identify pIC50 associated with the molecule CO[C@@H](C)COc1cc(NC(=O)N2CCCc3cc(CN4CCN(C)CC4=O)c(C=O)nc32)ncc1C#N
8.66

# return recorded pIC50 for input CC(C)COc1cc(NC(=O)N2CCCc3cc(C(F)F)c(C=O)nc32)ncc1C#N
7.52

State its pIC50 for this molecule: COc1cc(NC(=O)N2CCCc3cc(CN4CCCC4=O)c(C=O)nc32)ncc1C(F)(F)F
7.33

###

Listed compounds paired with reported IC50
target: FGFR4 (GST-FGFR4(388-802)) (Homo sapiens (Human)); test: In-vitro biochemical kinase assay for FGFR4 (Caliper microfluidic mobility shift); conditions: biochemical FGFR4 assay; read-out: Biochemical IC50
Please reply with the bare figure in nM and do not write the unit itself.

Examples from the recorded data:
>>> observed("COc1cc(NC(=O)N2CCCc3cc(CN4CCCC4(C)C)c(C=O)nc32)ncc1C#N")
440
>>> observed("CC(C)Oc1cc(NC(=O)N2c3nc(C=O)ccc3CCC2C)ncc1C#N (stereo not drawn)")
0.9
>>> observed("CCN(Cc1cc2c(nc1C=O)N(C(=O)Nc1cc(NCCOC)c(C#N)cn1)CCC2)C(=O)CN(C)C")
0.5
>>> observed("COC[C@H](C)Nc1cc(NC(=O)N2CCCc3cc(CN(C)C(C)=O)c(C=O)nc32)ncc1C#N")
1
>>> observed("CCC(=O)N(C)Cc1cc2c(nc1C=O)N(C(=O)Nc1cc(OC(C)C)c(C#N)cn1)CCC2")
0.9
>>> observed("COCCNc1cc(NC(=O)N2CCCc3cc(CN4CCN(C)C(=O)C4)c(C=O)nc32)ncc1C#N")
1.3

Indicate the recorded IC50 value for this compound: CC(C)Oc1cc(NC(=O)N2CCCc3cc(CN(C)C(=O)C(C)C)c(C=O)nc32)ncc1C#N
1.2

Specify measured IC50 for COCC(C)(C)Nc1cc(NC(=O)N2CCCc3cc(C(F)F)c(C=O)nc32)ncc1C#N .
4.3

Provide IC50 value for the following compound: CC(C)Oc1cc(NC(=O)N2CCCc3cc(CN4C[C@@H](N(C)C)CC4=O)c(C=O)nc32)ncc1C#N
0.2

###

biological target: Tel-FGFR4 (Homo sapiens (Human), UniProt P22455); test: In vitro cellular kinase assay for FGFR4 (BaF3-Tel-FGFR4 cells, MSD capture ELISA of tyrosine phosphorylation); type: cell-based; settings: BaF3-Tel-FGFR4 cells, 1 hour incubation; read-out: Cellular BaF3 FGFR4 IC50
READOUT KIND: IC50 (µM)
Report the figure in µM without appending any unit label.

>>> observed("CC(C)Oc1cc(NC(=O)N2CCCc3cc(CN4CCN(C)CC4=O)c(C=O)nc32)ncc1C#N")
0.0033
>>> observed("CN1CCN(Cc2cc3c(nc2C=O)N(C(=O)Nc2cc(NCCOC(C)(C)C)c(C#N)cn2)CCC3)C(=O)C1")
0.018
>>> observed("CCc1cc(NC(=O)N2CCCc3cc(C=O)c(C=O)nc32)ncc1C#N")
2.53

Next compound, IC50 to be filled in.
Give reported IC50 value for CN1CCOC(CNc2cc(NC(=O)N3CCCc4cc(C(F)F)c(C=O)nc43)ncc2C#N)C1 (racemic)
0.0173

###

// values below are reported IC50
system: HuH-7 hepatocellular carcinoma cells; test: CellTiter Glo (CTG) Assay; details: Homo sapiens, Huh-7, 72 h, read-out: HUH7 proliferation (nM) CTG
Write the answer as a number in nM, unit excluded.

For orientation, consider the following solved cases.
>>> observed("COCCNc1cc(NC(=O)N2CCCc3cc(CN4CC[C@H](O)C4=O)c(C=O)nc32)ncc1C#N")
23.5
>>> observed("COCCOc1cc(NC(=O)N2c3nc(C=O)c(CN4CCN(C)CC4=O)cc3CC[C@@H]2C)ncc1C#N")
134
>>> observed("COCCNc1cc(NC(=O)N2CCCc3cc(CO)c(C=O)nc32)ncc1C(F)(F)F")
944
>>> observed("COCCNc1cc(NC(=O)N2CCCc3cc(-c4cccnc4)c(C=O)nc32)ncc1C#N")
1360
>>> observed("COC[C@@H](Oc1cc(NC(=O)N2CCCc3cc(C(F)F)c(C=O)nc32)ncc1C#N)C(F)(F)F")
1360

Answer with reported IC50 of CC(=O)N1CCN(Cc2cc3c(nc2C=O)N(C(=O)Nc2cc(OC(C)C)c(C#N)cn2)CCC3)CC1
450

Look up and state reported IC50 for COCCNc1cc(NC(=O)N2CCCc3cc(-n4ccnc4)c(C=O)nc32)ncc1C#N
1160

Please supply the value of reported IC50 for the item COC[C@@H](C)Oc1cc(NC(=O)N2CCCc3cc(CN4C(=O)OC[C@@H]4C)c(C=O)nc32)ncc1C#N
17.5

Output IC50 of N#Cc1cnc(NC(=O)N2CCCc3cc(CO)c(C=O)nc32)cc1N[C@@H]1[C@H]2CC[C@H](C2)[C@@H]1CO (racemic)
65

# return recorded IC50 for input COCCNc1cc(NC(=O)N2CCCc3cc(CN4C(=O)COC[C@H]4C)c(C=O)nc32)ncc1C#N
101

Using the record for COCCNc1cc(NC(=O)N2CCCc3cc(CN4CC[C@@H](O)C4=O)c(C=O)nc32)ncc1C#N , state its measured IC50.
32.5

Quickly give me recorded IC50 for N#Cc1cnc(NC(=O)N2CCCc3cc(CN4CCCC4=O)c(C=O)nc32)cc1OCC1CCNC(=O)C1 (racemic)
1000

Answer with the recorded IC50 for the molecule listed here: CC(C)Oc1cc(NC(=O)N2CCCc3cc(CN(C)C(=O)CN(C)C)c(C=O)nc32)ncc1C#N
154
